molecular target: human TSLP (human, UniProt Q969D9 29-159); experiment: cell-based or functional assay
Sequence (Q969D9 29-159 R127A/R130S limits assumed): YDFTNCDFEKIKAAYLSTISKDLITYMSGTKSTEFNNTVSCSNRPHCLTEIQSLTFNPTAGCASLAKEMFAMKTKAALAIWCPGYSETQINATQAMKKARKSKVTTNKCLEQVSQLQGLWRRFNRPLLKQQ
measurement.name: IC50, inhibition of TSLP induced proliferation of Ba/F3-TSLPR-IL7Ra cells (CellTiter-Glo) (ng/mL)
Numbers only, in ng/mL.

TSLP-0301 (antibody, V domains shown) VH: EVQLVESGGGLVQPGGSLRLSCAASGFTFSNYDMTWVRQAPGKGLEWVSSITFASSYIYYADSVKGRFTISRDNAKNSLSLQMNSLRAEDTAVYYCTRGGGAYYGGSLDVWGQGVLVTVSS VL: DIVMTQTPLSLSVTPGEPASISCRSSQSLLHSNEYTYLHWYLQKPGQSPQLLIYLVSHRASGVPDRFSGSGSDTDFTLKISRVEAEDVGVYYCEQTLQTPFTFGGGTKVEIK | 217

# per-item lookup of IC50, inhibition of TSLP induced proliferation of Ba/F3-TSLPR-IL7Ra cells (CellTiter-Glo); items listed below
1. TSLP-0109 (antibody, V domains shown) VH: QVQLQESGPGLVKPSETLSLTCAVSGYSISSGYGWSWIRQPPGKGLEWIGYISYYGSTSYNPSLKSRVTISRDTSKNQFSLKLSSVTAADTAVYYCARTNLLYFESWGQGTLVTVSS VL: EIVMTQSPATLSLSPGERATLSCRASQGISSYLAWYQQKPGQAPRLLIYDASNLQSGIPARFSGSGSGTDFTLTISSLEPEDFAVYYCQQYSNWPQYSFGQGTKVEIK
2. TSLP-0110 (antibody, V domains shown) VH: QVQLQESGPGLVKPSETLSLTCAVSGYSISSGYGWSWIRQPPGKGLEWIGYISYYGSTSYNPSLKSRVTISRDTSKNQFSLKLSSVTAADTAVYYCARTNLLYFDSWGQGTLVTVSS VL: EIVMTQSPATLSLSPGERATLSCRASQSVSSYLAWYQQKPGQAPRLLIYDTSSRATGIPARFSGSGSGTDFTLTISSLEPEDFAVYYCQQYSNWPQYSFGQGTKVEIK

1. 30.4
2. 129

Attribution: patent US20250277022A1
